Tested on: rodent lifetime carcinogenesis bioassay, tumor incidence TD50
ASSAY_TEXT: carcinogenic potency in animals, long-term in vivo studies, CPDB compilation (AID 1745844)
EXPERIMENTAL_CONTEXT: rat; strain Fischer 344; males; in drinking water; site: lung; lesion: adenocarcinoma; dosed 112 weeks; study length 112 weeks
OBSERVABLE: TD50 (mg/kg/day)
Give bare numbers, in mg/kg/day.

*Q* Tell me the measured TD50 of CN(CCCC(O)c1cccnc1)N=O (stereo unspecified) , please.
*A* 0.409

###

Test system: rodent lifetime carcinogenesis bioassay, tumor incidence TD50
ASSAY_TEXT: carcinogenic potency in animals, long-term in vivo studies, CPDB compilation (AID 1745844)
EXPERIMENTAL_CONTEXT: rat; strain Fischer 344; males; by gavage; site: liver; lesion: hepatocellular carcinoma; dosed 52 weeks; study length 52 weeks
OBSERVABLE: TD50

*Q* For the compound shown here, COC(N)=O , give the reported TD50.
*A* 30.4 mg/kg/day
